- Test description: Half life of compound in rat
- Type: ADME
- Stated conditions: in vivo
Value type: half-life

Below, each entry is followed by its recorded half-life result.
Write down half-life measured for item CC(NC(=O)c1cccc(-c2sccc2-c2cc(Cl)ccc2OCc2ccccc2)c1)c1cccnc1 (stereo not given) < 1 h

Write down half-life measured for item O=S(=O)(Cc1ccccc1)Nc1cccc(-c2sccc2-c2cc(Cl)ccc2OCc2ccccc2)c1 < 1 h

Write down half-life measured for item O=C(O)c1cccc(-c2sccc2-c2cc(Cl)ccc2OCc2ccccc2)c1 < 0.5 h

Continuing:
Write down half-life measured for item O=C(O)c1cncc(-c2sccc2-c2cc(Cl)ccc2OCc2ccccc2)c1 < 0.5 h

Write down half-life measured for item O=C(Cc1ccccc1)Nc1cccc(-c2sccc2-c2cc(Cl)ccc2OCc2ccccc2)c1 < 1 h
